assay-text: Selectivity index, ratio of LD50 for human A549 cells to MIC80 for Cryptococcus neoformans H99
Assay type: toxicity
experimental-context: read-out: Selectivity Index
Can you tell me selectivity ratio for the items I'm about to list?
Please give the numeric answer without any surrounding text.

// returns reported selectivity ratio for input O=C(N/N=C/c1cc(Br)ccc1O)c1ccc(Br)cc1Br
1070

// returns reported selectivity ratio for input O=C(N/N=C/c1c(O)ccc2ccccc12)c1cc(Br)ccc1Br
128

// returns reported selectivity ratio for input O=C(N/N=C/c1cccc(Br)c1O)c1cccc(C(F)(F)F)c1
16

// returns reported selectivity ratio for input O=C(N/N=C/c1c(O)ccc2ccccc12)c1ccc(Br)cc1Br
133

// returns reported selectivity ratio for input O=C(N/N=C/c1ccc(Br)cc1O)c1ccc(Br)cc1
267

// returns reported selectivity ratio for input O=C(N/N=C/c1cc(Cl)cc(Cl)c1O)c1ccc(Br)c(Br)c1
1070

// returns reported selectivity ratio for input O=C(N/N=C/c1cc(OC(F)(F)F)ccc1O)c1ccc(Br)cc1
64

// returns reported selectivity ratio for input O=C(N/N=C/c1ccc(Br)cc1O)c1cccc(F)c1F
32

// returns reported selectivity ratio for input Cc1ccc(O)c(/C=N/NC(=O)c2cc(Br)ccc2Br)c1
32

// returns reported selectivity ratio for input O=C(N/N=C/c1cc(Br)ccc1O)c1ccccc1C(F)(F)F
16

// returns reported selectivity ratio for input O=C(N/N=C/c1c(O)ccc2ccccc12)c1cc(Br)cc(Br)c1
8

// returns reported selectivity ratio for input O=C(N/N=C/c1cccc(Br)c1O)c1cccc(F)c1
16

// returns reported selectivity ratio for input O=C(N/N=C/c1cc(Cl)ccc1O)c1ccc(Br)cc1Br
256

// returns reported selectivity ratio for input O=C(N/N=C/c1cc(C(F)(F)F)ccc1O)c1cccc(Br)c1
32

// returns reported selectivity ratio for input O=C(N/N=C/c1ccc(Br)cc1O)c1ccc(OC(F)F)cc1
267

// returns reported selectivity ratio for input O=C(N/N=C/c1cc(Br)cc(Br)c1O)c1cnc2ccccc2c1
128

// returns reported selectivity ratio for input O=C(N/N=C/c1cc(Br)ccc1O)c1ccc(OC(F)F)cc1
128

// returns reported selectivity ratio for input O=C(N/N=C/c1cc(F)ccc1O)c1ccc(Br)cc1
8
